System: Boophilus microplus
protocol: Boophilus microplus test (injection)
Format: in vivo
condition-summary: application rate 20 μg/animal, adult engorged females, after 7 days
In this section, each of the compounds is paired with its reported activity (100% means that all eggs are infertile).
The reply should consist of the numeric value with the unit placed after it.

C=CC[S+]([O-])CC(=O)NCc1ccc(N2CCC(c3cc(C(F)(F)F)cc(C(F)(F)F)c3)(C(F)(F)F)C2)cc1C(F)(F)F (stereo not shown) [1-970]: 100%

Prompt: Field request: activity (100% means that all eggs are infertile) | item: O=C(CC(F)(F)F)NCc1cnc(N2CCC(c3cc(C(F)(F)F)cc(C(F)(F)F)c3)(C(F)(F)F)C2)cc1C(F)(F)F (stereo not shown) [1-386]
Completion: 100%

Prompt: Field request: activity (100% means that all eggs are infertile) | item: CN(Cc1ccc(N2CCC(c3cc(Cl)cc(Cl)c3)(C(F)(F)F)C2)cc1C(F)(F)F)C(=O)NC1CC1 (stereo not shown) [1-260]
Completion: 100%

Prompt: Field request: activity (100% means that all eggs are infertile) | item: O=C(NCc1ccc(N2CCC(c3cc(Cl)cc(Cl)c3)(C(F)(F)F)C2)cc1C(F)(F)F)C(F)F (stereo not shown) [1-164]
Completion: 100%

Prompt: Field request: activity (100% means that all eggs are infertile) | item: O=C(CC1CC1)NCc1ccc(N2CCC(c3cc(Cl)cc(Cl)c3)(C(F)(F)F)C2)cc1C(F)(F)F (stereo not shown) [1-155]
Completion: 100%

Prompt: Field request: activity (100% means that all eggs are infertile) | item: C[S+]([O-])CC(=O)NCc1ccc(N2CCC(c3cc(Cl)cc(Cl)c3)(C(F)(F)F)C2)cc1C(F)(F)F (stereo not shown) [1-494]
Completion: 100%

Prompt: Field request: activity (100% means that all eggs are infertile) | item: CN(Cc1ccc(N2CCC(c3cc(Cl)cc(Cl)c3)(C(F)(F)F)C2)cc1Cl)C(=O)CC(F)(F)F (stereo not shown) [1-75]
Completion: 100%

* * *

Tested on: Lucilia cuprina larvae
protocol: Lucilia cuprina test (larvae in minced horse meat)
Format: in vivo
condition-summary: application rate 100 ppm, larvae, after 2 days
endpoint-label: activity (mortality in %)
The reply should consist of the numeric value with the unit placed after it.

Before answering, review these 2 worked examples.
O=C(NCc1ccc(N2CCC(c3cc(Cl)cc(Cl)c3)(C(F)(F)F)C2)cc1C(F)(F)F)N1CCOCC1 (stereo not drawn): 95%
COCCNC(=O)NCc1ccc(N2CCC(c3cc(Cl)cc(Cl)c3)(C(F)(F)F)C2)cc1C(F)(F)F (stereo not drawn): 95%

For the next question, use this compound.
Prompt: Field request: activity (mortality in %) | item: COCCNC(=O)NCc1ccc(N2CCC(c3cc(Cl)cc(Cl)c3)(C(F)(F)F)C2)cc1Cl (stereo not drawn)
Completion: 90%
